Test system: HeLa
Assay: Cytotoxicity against Homo sapiens (human) HeLa cells after 48 hr by MTT assay
Format: functional, cell-based
Measurement name: IC50

// query IC50 value for entry O=C(NCc1ccccc1)c1cn(-c2ccccc2)nc1-c1cccnc1
> 100 µM

What do we get for O=C(c1cn(-c2ccccc2)nc1-c1ccncc1)N1CCN(c2ccccc2)CC1 ?
> 100 µM

What do we get for O=C(Oc1ccc2ccccc2c1)c1cn(-c2ccccc2)nc1-c1cccnc1 ?
> 100 µM

Continuing:
// query IC50 value for entry Cc1ccc(C(C)C)c(OC(=O)c2cn(-c3ccccc3)nc2-c2cccnc2)c1
> 100 µM

What do we get for O=C(c1cn(-c2ccccc2)nc1-c1cccnc1)N1CCN(c2ccc(C(F)(F)F)cc2)CC1 ?
28.6 µM

What do we get for CC(C)c1cccc(OC(=O)c2cn(-c3ccccc3)nc2-c2ccncc2)c1 ?
> 100 µM

What do we get for O=C(Oc1ccc(-c2ccccc2)cc1)c1cn(-c2ccccc2)nc1-c1ccncc1 ?
> 100 µM

What do we get for CN1CCN(C(=O)c2cn(-c3ccccc3)nc2-c2ccncc2)CC1 ?
> 100 µM

What do we get for O=C(c1cn(-c2ccccc2)nc1-c1cccnc1)N1CCOCC1 ?
> 100 µM

What do we get for O=C(c1cn(-c2ccccc2)nc1-c1ccncc1)N1CCOCC1 ?
> 100 µM

What do we get for O=C(c1cn(-c2ccccc2)nc1-c1ccncc1)N1CCN(c2ccc(C(F)(F)F)cc2)CC1 ?
> 100 µM

What do we get for CN1CCN(C(=O)c2cn(-c3ccccc3)nc2-c2cccnc2)CC1 ?
> 100 µM
